Test system: U2OS
Test: relative viability EC50 (midpoint between 100% and the lowest measured viability); higher = less toxic
Details: 72 h
PROPERTY: relative viability EC50

Param item = COc1cc2c(Oc3ccc(NC(=O)C4(C(=O)Nc5ccc(F)cc5)CC4)cc3F)ccnc2cc1OCCCN1CCOCC1 [foretinib] ; retrieve measured relative viability EC50.
1.55 µM

Ok, now COc1ccccc1Oc1c(NS(=O)(=O)c2ccc(C)cn2)nc(-c2ccncc2)nc1OC [SPP301]
> 10 µM

Ok, now CN(C)CCOC(c1ccccc1)c1ccccc1 [diphenhydramine]
> 10 µM

====

Tested on: Calu-3
Assay: cell viability relative to DMSO; higher = less toxic
Settings: 72 h; 1000 nM
PROPERTY: cell viability (%)
# value in %; strip the unit string

Param item = NS(=O)(=O)OC[C@@H]1C[C@@H](n2ccc3c(N[C@H]4CCc5ccccc54)ncnc32)C[C@@H]1O ; retrieve measured cell viability.
97.4

Ok, now CC(C)c1ccc(NC(=O)Cn2cnc3c2c(=O)n(C)c(=O)n3C)cc1
90

Ok, now Nc1ccncc1N
98.8

Ok, now O=C(O)C(F)(F)C(F)(F)C(F)(F)C(F)(F)C(F)(F)C(F)(F)C(F)(F)F [ammonium-perfluorocaprylate]
93.6

Ok, now OCCN1CCN(CCCN2c3ccccc3Sc3ccc(C(F)(F)F)cc32)CC1
98.1

Ok, now COc1ccccc1OCC(O)CO (stereo not drawn)
108

Ok, now O=C1/C(=C/c2ccccc2)C[C@@]2(O)[C@H]3Cc4ccc(O)c5c4[C@@]2(CCN3CC2CC2)[C@H]1O5
109

Ok, now Cc1ccnc2c1CCCC2C(N)=S (stereo not drawn) [isotiquimide]
107

Ok, now O=C(NC1CCN(CCCCC2(C(=O)NCC(F)(F)F)c3ccccc3-c3ccccc32)CC1)c1ccccc1-c1ccc(C(F)(F)F)cc1 [lomitapide]
109

Ok, now Nc1ncn([C@@H]2O[C@H](CO)[C@@H](O)[C@H]2O)c(=O)n1
87.2

Ok, now CN(C)CCOC(c1ccccc1)c1ccccc1 [diphenhydramine]
112

Ok, now CCNC(=O)CCC/C=C\C[C@@H]1[C@@H](/C=C/[C@@H](O)CCc2ccccc2)[C@H](O)C[C@@H]1O
100

Ok, now CN(C)C/C=C(/c1ccc(Br)cc1)c1cccnc1
99.2

Ok, now CCC(=O)OCN1C(=O)C=CC1=O
101

Ok, now Cc1ccc(Cl)cc1N(CC(=O)Nc1c(F)cccc1F)S(C)(=O)=O
105

Ok, now O=C(Nc1cc(Cl)cc(Cl)c1O)c1c(O)c(Cl)cc(Cl)c1Cl [oxyclozanide]
88.7

Ok, now COc1cc2ncnc(Nc3cccc(Cl)c3F)c2cc1OC(=O)N1CCN(C)C[C@H]1C
48.4

Ok, now CSc1ccc([C@H]2CN3CCC[C@H]3c3ccccc32)cc1 (racemic) [McN-5652-(+/-)]
84.9

====

System: Caco-2
Assay: cell viability relative to DMSO; higher = less toxic
Conditions: 72 h; 10 nM
Consider the following molecules; for each one, report its cell viability.
# value in %; strip the unit string

Param item = OC(c1ccc(-c2ccc(CN3CCN(Cc4ccncc4)CC3)cc2)c(F)c1)(C(F)(F)F)C(F)(F)F ; retrieve measured cell viability.
95.4

Ok, now Cc1ccc(CC2(O)CCN(CCOc3ccc(O)cc3)CC2)cc1
101

Ok, now Cc1ccc(Cl)cc1N(CC(=O)Nc1c(F)cccc1F)S(C)(=O)=O
97.2

Ok, now COc1cc2ncnc(Sc3nnc(C)s3)c2cc1OC
92

Ok, now CC(Cc1ccccc1)NCCC(c1ccccc1)c1ccccc1 (stereo not given)
101

Ok, now C=CCN1CC[C@]23c4c5ccc(O)c4O[C@H]2[C@@H](OCCOCCOCCOCCOCCOCCOCCOC)CC[C@@]3(O)[C@H]1C5
97.9

Ok, now CN1CCC(Nc2ncc3ncnc(Nc4ccc(F)c(Cl)c4)c3n2)CC1
104

Ok, now CC(=O)Nc1ccc(OC[C@](C)(O)C(=O)Nc2ccc([N+](=O)[O-])c(C(F)(F)F)c2)cc1
98.6

Ok, now O=C(O)/C=C1\CCCc2ccccc2[C@H]1O (racemic)
99.3

Ok, now CC(C)NC(=O)COc1cccc(-c2nc(Nc3ccc4[nH]ncc4c3)c3ccccc3n2)c1
100

Ok, now CNCc1ccc(-c2[nH]c3cc(F)cc4c3c2CCNC4=O)cc1
91.2

Ok, now O=C1CCc2cc(OCCCCc3nnnn3C3CCCCC3)ccc2N1
104

Ok, now CN1CCCN=C1COC(=O)C(O)(c1ccccc1)C1CCCCC1 (stereo not given)
99.3

Ok, now Nc1nccc2c1ncn2C1C=C(CO)C(O)C1O (stereo not given)
104

Ok, now C[C@@H](N)c1ccc(C(=O)Nc2ccnc3[nH]ccc23)cc1
101

Ok, now COc1cc2ncnc(Nc3cccc(Cl)c3F)c2cc1OC(=O)N1CCN(C)C[C@H]1C
91.1

Ok, now C[C@@H](O)[C@H]1C(=O)N2C(C(=O)O)=C(S[C@@H]3CN[C@H](CNS(N)(=O)=O)C3)[C@H](C)[C@H]12
98

Ok, now C=CCc1cccc(/C=N/NC(=O)CN2CCN(Cc3ccccc3)CC2)c1O
102

Ok, now Oc1cc(O)c(Cl)cn1
92.7

Ok, now NS(=O)(=O)c1cc2c(cc1Cl)N=C(CSCc1ccccc1)NS2(=O)=O [benzthiazide]
101

Ok, now CC(=O)OCC(=O)[C@@]12OC3(CCCC3)O[C@@H]1C[C@H]1[C@@H]3CCC4=CC(=O)C=C[C@]4(C)[C@@]3(F)[C@@H](O)C[C@@]12C [amcinonide]
105

Ok, now O=c1ccc2ccc(OCCCCN3CCN(c4cccc5sccc45)CC3)cc2[nH]1
96.7

Ok, now c1ccc(C(NCCNC(c2ccccc2)c2ccccc2)c2ccccc2)cc1
104

Ok, now CCOC(=O)C1=C[C@]2(CC)CCCN3CCc4c(n1c1ccccc41)[C@@H]32
96.7

Ok, now CCN(CC)CCNC(=O)c1ccc(N)cc1 [procainamide]
97.6

Ok, now O=C(NC1CCN(CCCCC2(C(=O)NCC(F)(F)F)c3ccccc3-c3ccccc32)CC1)c1ccccc1-c1ccc(C(F)(F)F)cc1 [lomitapide]
103

Ok, now NS(=O)(=O)c1cc2c(cc1Cl)NC(C1CC3C=CC1C3)NS2(=O)=O (stereo not given) [cyclothiazide]
89

Ok, now COc1ccccc1CC(=N)N1C[C@@H]2C(=O)CCC(c3ccccc3)(c3ccccc3)[C@@H]2C1
96.5

Ok, now CCCCc1nn(-c2ccccc2C(F)(F)F)c(=O)n1Cc1ccc(-c2ccccc2S(=O)(=O)NC(=O)c2sccc2C)cc1
110

Ok, now COc1cc2c(cc1OC)C(c1ccc(N)cc1)=NNC(=O)C2
102

Ok, now CCc1c2c(nc3ccc(O)cc13)-c1cc3c(c(=O)n1C2)COC(=O)[C@]3(O)CC
89.5

Ok, now CCN(CC)C(=O)[C@@]1(c2ccccc2)C[C@H]1CN
87.3

Ok, now CCOCCn1c(C2CCN(CCc3ccc(C(C)(C)C(=O)O)cc3)CC2)nc2ccccc21
87.5

Ok, now COC(=O)/C=C/C(=O)OCCN1C(=O)CCC1=O [diroximel-fumarate]
104

Ok, now CCN(CC)C(=S)SSC(=S)N(CC)CC
90.1
